Assay: Half life of compound after intravenous administration at dose of 0.2 mg/kg in female monkeys was determined
Assay type: ADME, organism-based
Set-up: dose 0.2 mg/kg, route intravenous
Conditions: cercopithecidae, in vivo

[
  {
    "compound": "COC[C@@H](NC(=O)c1ccc(Cl)s1)C(=O)Nc1ccc(N2CCOCC2=O)c(C)c1",
    "half-life": "2.3 h"
  }
]

* * *

Test: Steady state volume of distribution of compound after intravenous administration at dose of […] was determined
Format: ADME, organism-based, Canis lupus familiaris
Parameters: route intravenous
Details: dog, in vivo, read-out: Vss

[
  {
    "compound": "COC[C@@H](NC(=O)c1ccc(Cl)s1)C(=O)Nc1ccc(N2CCOCC2=O)c(C)c1",
    "Vd (L/kg)": 0.86
  }
]
